src = ChEMBL document CHEMBL6109107

Each entry below carries its recorded selectivity ratio.
- measurement_description: Selectivity index, ratio of IC50 for human HaCaT cells to IC50 for human T24 cells
- Type: toxicity
- experimental_setup: HaCaT cells versus T24 cells, read-out: Ratio IC50
Hey, just send me the number, nothing else.

CCS[C@@H]1[C@@H](OC(C)=O)[C@H](N=C=S)O[C@H](COC(C)=O)[C@H]1OC(C)=O = 1.5
CC(=O)OC[C@H]1O[C@@H](N=C=S)[C@H](OC(C)=O)[C@@H](OC(C)=O)[C@@H]1OC(C)=O = 1.5
CC(=O)OC[C@H]1O[C@@H](N=C=S)[C@H](OC(C)=O)[C@@H](S(C)(=O)=O)[C@@H]1OC(C)=O = 2

Reported selectivity ratio for "CCS(=O)(=O)[C@@H]1[C@@H](OC(C)=O)[C@H](N=C=S)O[C@H](COC(C)=O)[C@H]1OC(C)=O" was 2
